Just for reference, the RNAGym collection of RNA variant scans (doi:10.7554/elife.80360) is where these values come from.

Kindly supply the reported self-cleavage values for the records listed here.
B1: CPEB3 Ribozyme (parent)
chain: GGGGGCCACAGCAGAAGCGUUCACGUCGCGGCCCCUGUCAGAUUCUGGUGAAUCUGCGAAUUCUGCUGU

- Variants of: B1
- ASSAY NOTES: self-cleavage, relative activity (ratio to wild type); higher = more cleavage; co-transcriptional
Give bare numbers.

Dear colleague, could you send me self-cleavage for each of the items below? Thanks.
1. U55A G56C
2. C6A G37C
3. A15U U61G
4. C18U C63G
5. U20G U38A

Response line:
0.636
0.122
0.854
0.306
0.288

Dear colleague, could you send me self-cleavage for each of the items below? Thanks.
1. C33U C34A
2. C63A U69C
3. G5C U61A
4. G48C U49G
5. G4U A51G
6. U46C A59G
7. C7A A52U

Response line:
0.413
1.07
0.193
1.06
0.692
1.03
0.466
